Listed molecules paired with reported TGI
Test system: SR leukemia
Measurement notes: NCI tumour cell line growth inhibition, 48 h

| Molecule | Value qualifier | TGI [µM] |
| --- | --- | --- |
| NCCCN(CCCN)CCCNCc1c2ccccc2c(CNCCCN(CCCN)CCCN)c2ccccc12 | > | 100 |
| C/C=C1\CN2CCC34c5ccccc5N(C)C35OCC4(C(=O)OC)C1CC25 (stereo not given) | > | 100 |
| COc1cc2c(c(OC)c1OC)-c1ccc(SC)c(=O)cc1[C@@H](NC(=O)c1ccc(OC(C)=O)cc1)CC2 | = | 23.9 |
| Cc1ccc(S(=O)(=O)NC(=O)NC(Cc2ccccc2)C(=O)O)cc1 (stereo not given) | > | 100 |
| COc1ccc(C2=NN(C(=O)COc3ccc(Cl)cc3)C(O)(c3cc(F)c(Cl)cc3Cl)C2)cc1OC (stereo not given) | = | 6.89 |
| N#CCc1ccc(C(C#N)/C(CCCC(=O)Nc2cccc([N+](=O)[O-])c2)=N\NC(=O)NN)cc1 (stereo not given) | > | 100 |
| S=c1[nH]c(=S)c2sc(=S)n(-c3ccccc3)c2[nH]1 | > | 100 |
| COc1cc(Cl)cc(-c2nn(C(=O)NCCN3CCN(C)CC3)cc2-c2ccncc2)c1 | > | 100 |
| CN(C)Cc1cc(C(C)(C)C)cc(CNC2CCCCC2)c1O | = | 71.8 |
| O=C(Nc1ccc(Cl)cc1)c1cccc([N+](=O)[O-])c1O | = | 31.5 |

###

Test system: ACHN renal
Measurement notes: NCI tumour cell line growth inhibition, 48 h
Listed compounds paired with reported TGI
Readout name: TGI

| Compound | Reported |
| --- | --- |
| CCN1C(=O)N(CC)C2C1NN=c1s/c(=C3\C(=O)N(CC(C)C)c4ccccc43)c(=O)n12 (centres undefined) | > 45 µM |
| CC(C)(C)C(=O)Nc1ccccc1I(=O)=O | > 100 µM |
| O=c1[nH]nc(Cc2ccccc2)n1/N=C/c1ccc([N+](=O)[O-])o1 | 27.4 µM |
| C=C1C[C@@H]2C/C=C/C(=O)C/C(C)=C\C=C\C(=O)O[C@H](C=O)C/C(C)=C/[C@H](C1)O2 | 21.8 µM |
| Cc1cc(C)c(O)c(CNCCCCCCNCc2cc(C)cc(C)c2O)c1 | 3.69 µM |
| N#Cc1nc(C(F)(F)F)oc1N | > 100 µM |
| O=C1c2cc([N+](=O)[O-])cnc2S(=O)(=O)N1c1ccc(Br)cc1 | > 100 µM |
| CN(NC(=O)CC(=O)NN(C)C(=S)c1ccccc1)C(=S)c1ccccc1 | > 100 µM |
| COc1ccc(C[C@H]2NC(=O)/C=C/C[C@@H]([C@H](C)[C@H]3O[C@@H]3c3ccccc3)OC(=O)[C@H](CC(C)C)OC(=O)[C@H](C)CNC2=O)cc1 | > 0.0001 µM |

###

Listed molecules paired with reported TGI
Tested on: BT-549 breast
Measurement notes: NCI tumour cell line growth inhibition, 48 h
Readout name: TGI

| Molecule | Reported |
| --- | --- |
| Cn1ccc2c(NCCN)c3c(c(NCCN)c21)C(=O)c1ccccc1C3=O | 23.7 µM |
| Cc1ccccc1C(=O)C#Cc1cn(C2CC(O)C(CO)O2)c(=O)[nH]c1=O (configuration not stated) | > 100 µM |
| Nc1ccccc1/C=C\c1ccccc1 | > 100 µM |
| CC(=O)C1CC2(c3ccc(C)cc3)C(c3ccc(C)cc3)=C(c3ccc(C)cc3)C1(c1ccc(C)cc1)S2=O (configuration not stated) | > 100 µM |
| Cc1ccc(S(=O)(=O)Nc2nc3ccccc3c(=O)n2C2CCCCC2)cc1 | > 100 µM |
| CN(C)Cc1cc(C(C)(C)C)cc(CNC2CCCCC2)c1O | > 100 µM |
| CC(C)(C)OC(=O)NC1CCCC1C(O)(C1=CCCC1)C1=CCCC1 (configuration not stated) | > 100 µM |
| C/C=C(\C)C(=O)N[C@H]1[C@@H](OC(C)=O)C[C@]2(C)C3CC[C@@]4(C)C(CC[C@@H]4C(C)N(C)C)C3CCC2[C@H]1O (some centres not stated) | 21.6 µM |
| N#Cc1ccccc1NC(=O)/C(=N\NC(=O)c1ccncc1)C(c1cnc2ccc([N+](=O)[O-])cc2n1)[N+](=O)[O-] (configuration not stated) | > 100 µM |
| COc1ccc(OC)c(C(=O)/C=C/c2cc(O)c(O)cc2F)c1 | 19.6 µM |
| COC(=O)c1c(C)ccc2c(O)c3c(cc12)C(=O)c1c2c(cc(O)c1C3=O)C1(C)OC(C)(O2)C(O)C(N(C)C)C1O (configuration not stated) | 10.7 µM |
| N#CC1=C(N)OC2=C(COc3ccc(F)cc32)C1c1ccc(Cl)cc1 (configuration not stated) | 73.5 µM |
| Cc1ncc([N+](=O)[O-])n1CCNS(=O)(=O)CCCn1ccnc1[N+](=O)[O-] | > 100 µM |
| C=CCn1c(-c2ccccc2)cs/c1=N\C(P(=O)(O)O)P(=O)(O)O | > 100 µM |
| Cc1cccc(/C=N/NC(=S)N2CCCCCC2)n1 | 14.4 µM |
| c1cc2c(cc1C(N1CCNCC1)N1CCNCC1)OCO2 | > 100 µM |
| c1ccc2c(c1)nc1n2CCNC1 | > 100 µM |
| CC(C)=NNc1cnnc2ccc([N+](=O)[O-])cc12 | > 100 µM |
| CN(C)CCCN=C(N)N | > 100 µM |
| NC(Cc1ccccc1)=NCC(=O)O | > 100 µM |
| O=c1[nH]c2nccnc2c2c([N+](=O)[O-])cccc12 | > 100 µM |
| O=[N+]([O-])c1ccc(-c2nc(N(CCO)CCO)c3ccccc3n2)o1 | 0.758 µM |

###

System: KM12 colon
Measurement notes: NCI tumour cell line growth inhibition, 48 h

| Molecule | Test system | TGI |
| --- | --- | --- |
| OC12C3C4CC5C(C4[C@@H]1Br)C2[C@@](O)(c1c(F)c(F)c(F)c(F)c1F)C53 (some centres undefined) | KM12 colon | 34.5 µM |
| CC(=O)Nc1nc(SCc2ccccc2)c2ncn(C(C)=O)c2n1 | KM12 colon | > 100 µM |
| COc1ccc2c(c1)c(=O)c1c(NCCCN(C)CCCNc3ccc4c(=O)n(CCN(C)C)c(=O)n5c6ccc(OC)cc6c(=O)c3c45)ccc3c(=O)n(CCN(C)C)c(=O)n2c31 | KM12 colon | 1.11 µM |
| CCOP(=O)(CC1CC(O)(CNc2cc(Cl)nc(N)n2)C1)OCC (centres undefined) | KM12 colon | > 100 µM |
| CCCN=C1Nc2ccccc2[C@@H]2N(C)c3ccccc3C(C)C[C@]12C (some centres undefined) | KM12 colon | 34.9 µM |
| COc1ccc2c([nH]c3cc(O)c(C)cc32)c1C=O | KM12 colon | > 25 µM |
| COc1c(C)c2c(c(O)c1C/C=C(\C)CCC(=O)OCCN1CCOCC1)C(=O)OC2 | KM12 colon | > 100 µM |
| COC(=O)COc1ccc(/C=C2\N=C(c3ccccc3)N(c3cc(C(F)(F)F)ccc3Cl)C2=O)cc1 | KM12 colon | > 100 µM |
| CC(C)=CC(=O)Oc1ccc([N+](=O)[O-])cc1 | KM12 colon | > 100 µM |

###

Listed compounds paired with reported GI50
Tested on: SNB-75 CNS
Measurement notes: NCI tumour cell line growth inhibition, 48 h
Readout name: GI50

| Compound | Readout name | Reported |
| --- | --- | --- |
| COc1ccc(C2=NN(C(=O)COc3ccc(Cl)cc3)C(O)(c3cc(F)c(Cl)cc3Cl)C2)cc1OC (stereo not drawn) | GI50 | 2.69 µM |
| O=C1CCCCCCCC/C=C/CCC(c2ccco2)O1 (stereo not drawn) | GI50 | 23.7 µM |
| N#CC1=C(N)NC(=S)NC12Nc1ccccc1O2 (stereo not drawn) | GI50 | 59.5 µM |
| N#CC1=C(N)OC2=C(COc3ccc(F)cc32)C1c1ccc(Cl)cc1 (stereo not drawn) | GI50 | > 100 µM |
| CCC1=C[C@@H]2CN(C1)Cc1c([nH]c3ccccc13)[C@@](C(=O)OC)(c1cc3c(cc1OC)N(C=O)[C@H]1[C@@](O)(C(=O)OC)[C@H](OC(C)=O)[C@]4(CC)[C@@H]5C[C@@H]5CN5CC[C@]31[C@@H]54)C2 | GI50 | 0.000766 µM |
| COC(=O)NC/C=C\c1nc(CC/C=C\C(=O)OC2CC3CC(=O)O[C@H](/C=C/CC(C)C)C[C@H]4CCC(C)C(C[C@H](OC)CC(C2)O3)O4)co1 (stereo partly drawn) | GI50 | 32.5 µM |
| CCCCCCCCCNCCCCCCCCC | GI50 | 1.57 µM |
| COc1cc(C(=O)O[C@H](C(=O)NCCNC(=O)[C@@H](OC(=O)c2cc(OC)cc3c(C)cccc23)[C@]2(C)CO2)[C@]2(C)CO2)c2cccc(C)c2c1 | GI50 | 0.304 µM |
